Test system: FGFR4
Conditions: concentration: 1 μM, replicates: in singlicate; n = 1
Listing of recorded %Inh by entry.
Reply with just the number (in %).

Example entries begin here.
> print(dat)
                         chemical.structure  measure.unit  reported.measurement
1  Cl.Oc1cccc(Nc2ccnc3cc(-c4ccncc4)ccc23)c1             %                    12
2  c1ccc(-c2cc(-c3c[nH]nc3-c3ccccn3)ccn2)cc1             %                    67
3  O=C(NOCC1CC1)c1ccc(F)c(F)c1Nc1ccc(I)cc1Cl             %                     0
4  O=C1NC(=O)C(N2CCc3ccccc32)=C1c1cccc(Cl)c1             %                     0

Dear colleague, I am looking for the recorded %Inh of the following compound: NS(=O)(=O)c1cccc(-c2ccc3nccc(-c4cccc(S(N)(=O)=O)c4)c3c2)c1
0

---

Listing of recorded pKd by entry.
Test system: VPS34;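 further: kd values determined as follow-up on hits from a single-replicate KINOMEscan panel screen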
Construct: gene PIK3C3
pKd (log units): -log10 of the concentration in mol/L.

> print(dat)
                                   compound  reported.measurement
1  Cc1cn2c(=O)cc(N3CCOCC3)nc2n1Cc1cccc(Cl)c1Cl [GSK2334006]                  8.66

Dear colleague, I am looking for the recorded pKd of the following compound: O=c1cc(N2CCOCC2)nc2n(Cc3cccc4ccccc34)ccn12 [GSK2333389]
7.22

Dear colleague, I am looking for the recorded pKd of the following compound: O=c1cc(N2CCOCC2)nc2n(Cc3cccc(C(F)(F)F)c3)ccn12 [GSK2297543]
6.89

Dear colleague, I am looking for the recorded pKd of the following compound: O=c1cc(N2CCOCC2)nc2n(Cc3cccc(F)c3)ccn12 [GSK2297430]
7.48

Dear colleague, I am looking for the recorded pKd of the following compound: O=c1cc(N2CCOCC2)nc2n(Cc3cccc(Cl)c3Cl)c(C3CC3)nn12 [GSK2358994]
9.41

---

Listing of recorded %Inh by entry.
System: SGK3
Details: concentration: 1 μM, replicates: in singlicate; n = 1
Reply with just the number (in %).

Example entries begin here.
> print(dat)
                                   compound  reported.measurement
1  O=c1cc(N2CCOCC2)nc2n(Cc3cccc(C(F)(F)F)c3)ccn12 [GSK2297543]                     5
2  Cc1cccc(Cn2ccn3c(=O)cc(N4CCOCC4)nc23)c1 [GSK2297542]                     0
3  COc1cc(Nc2nccc(N3CCC(NC(=O)c4cccc(NC(C)=O)c4)C3)n2)cc(OC)c1OC (stereo not drawn) [GSK1379754]                     0
4  Cc1c(Cn2c(C)nn3c(=O)cc(N4CCOC(C)C4)nc23)cccc1C(F)(F)F (stereo not drawn) [GSK2344444]                     0

Now let's try a different one.
Dear colleague, I am looking for the recorded %Inh of the following compound: COCCNC(=O)c1ccc(-c2cc(C(=O)NC3CC3)cc(F)c2C)cc1 [GW868318]
21
